I'd be grateful if you could share measured GI50 for these entries.
- Tested on: LXFL 529
- assay procedure: NCI tumour cell line growth inhibition, 48 h
Calls of active or inactive are those of the source. No stated cut-off is given here; in the data, active = GI50 up to about 1.1 µM and inactive = higher.

>>> print(df.to_string())
                                   compound  target_entity  observable        readout_value
0  COC(=O)C(C(=O)Cc1ccccc1[N+](=O)[O-])C(=O)OC       LXFL 529        GI50  > 100 µM (inactive)
1  CC1CCCP(=O)(c2ccccc2)CCC1 (centres undefined)       LXFL 529        GI50  > 100 µM (inactive)
2  CCOC(=O)c1c2ccc(/C=C/C(=O)OC)ccc-2c(C(=O)OCC)c1N       LXFL 529        GI50  > 100 µM (inactive)

Each compound below has a reported value. Please supply its GI50.
1. c1cncc(C2c3[nH]c4ccccc4c3CCN2CCCN2CCCCC2)c1 (centres undefined)
2. CCOC(=N)CC(=O)NC(C)c1ccccc1 (centres undefined)
3. OC(CC1SCCCS1)c1ccccc1 (centres undefined)
4. Cc1cc(OCC(O)CO)ccc1Cl (centres undefined)

68.7 µM (inactive)
> 100 µM (inactive)
> 100 µM (inactive)
> 100 µM (inactive)

For each entry beneath this line, provide reported GI50.
1. CN(C(=O)C12C3C4C1C1C2C3C41I)C(C)(C)C (centres undefined)
2. N#CC(C(=O)/C(=N/NC(=O)c1ccccc1O)C(C#N)c1ccccc1)c1ccccc1 (centres undefined)

1. > 87.1 µM (inactive)
2. > 100 µM (inactive)

Data credit: ChEMBL document CHEMBL1201862
